Readings of MIC for the listed compounds
Tested on: Psdm. aerug. Walter
Assay comment: MIC, liquid medium test tube series dilution test
Assay type: cell-based, Pseudomonas aerug.
Conditions: 24 hours, 37°C

Solved entries:
| Compound | MIC |
| --- | --- |
| C=CCN(C(=O)NC(C(=O)N[C@@H]1C(=O)N2[C@@H]1SC(C)(C)[C@@H]2C(=O)O)c1cccs1)C(=O)c1ccccc1 (stereo partly drawn) | 100-500 units/ml |
| CC1(C)S[C@@H]2[C@H](NC(=O)[C@H](NC(=O)N3CCNC3=O)c3ccccc3)C(=O)N2[C@H]1C(=O)O [Example 51] | 12,5 units/ml |

Query: Requested read-out: MIC. Entry: C=CCN(C(=O)NC(C(=O)N[C@@H]1C(=O)N2[C@@H]1SC(C)(C)[C@@H]2C(=O)O)c1ccc(OC)cc1)C(=O)c1ccccc1 (stereo partly drawn)
Result: 100-500 units/ml
